Target: UniProt Q9Y2R2
Assay: LYP phosphatase inhibitors, confirmation, biochemical, DiFMUP fluorescence, retest and dose response (AID 1253)
Conditions: recombinant LYP, at 10 µM, hits give high values
Calls of active or inactive are those of the source.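 How the source made its calls: active means IC50 under 10 µM in the follow-up dose response; inactive means IC50 10 µM or more, or under 40% single-dose inhibition.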
endpointName: inhibition

Some molecules with known inhibition results, for comparison:
> print(dat)
                                   molecule  endpointname  datavalue
1  COc1ccc(C(=O)c2sc3nc(-c4ccccc4)ccc3c2N)cc1OC    inhibition   inactive
2  c1ccc(-c2cc(-c3nnc4n3N=C(c3ccc5ccccc5c3)CS4)[nH]n2)cc1    inhibition   inactive
3  CCOc1ccc(N2C(=O)CS/C2=C(\C(Cl)=C(Cl)Cl)[N+](=O)[O-])cc1    inhibition   inactive
4  CCOC(=O)c1c(-n2c(C)cc(C=C3C(=O)NC(=S)NC3=O)c2C)sc2c1CCCC2    inhibition   inactive

# evaluate next
Problem: # lookup: inhibition of CC1CCc2c(C(=O)Nc3nccs3)csc2C1 (stereo not given)
Solution: inactive

###

Biological target: Tyrosine-protein phosphatase non-receptor type 22 (Homo sapiens) (UniProt Q9Y2R2)
Sequence (Q9Y2R2 whole entry, looked up): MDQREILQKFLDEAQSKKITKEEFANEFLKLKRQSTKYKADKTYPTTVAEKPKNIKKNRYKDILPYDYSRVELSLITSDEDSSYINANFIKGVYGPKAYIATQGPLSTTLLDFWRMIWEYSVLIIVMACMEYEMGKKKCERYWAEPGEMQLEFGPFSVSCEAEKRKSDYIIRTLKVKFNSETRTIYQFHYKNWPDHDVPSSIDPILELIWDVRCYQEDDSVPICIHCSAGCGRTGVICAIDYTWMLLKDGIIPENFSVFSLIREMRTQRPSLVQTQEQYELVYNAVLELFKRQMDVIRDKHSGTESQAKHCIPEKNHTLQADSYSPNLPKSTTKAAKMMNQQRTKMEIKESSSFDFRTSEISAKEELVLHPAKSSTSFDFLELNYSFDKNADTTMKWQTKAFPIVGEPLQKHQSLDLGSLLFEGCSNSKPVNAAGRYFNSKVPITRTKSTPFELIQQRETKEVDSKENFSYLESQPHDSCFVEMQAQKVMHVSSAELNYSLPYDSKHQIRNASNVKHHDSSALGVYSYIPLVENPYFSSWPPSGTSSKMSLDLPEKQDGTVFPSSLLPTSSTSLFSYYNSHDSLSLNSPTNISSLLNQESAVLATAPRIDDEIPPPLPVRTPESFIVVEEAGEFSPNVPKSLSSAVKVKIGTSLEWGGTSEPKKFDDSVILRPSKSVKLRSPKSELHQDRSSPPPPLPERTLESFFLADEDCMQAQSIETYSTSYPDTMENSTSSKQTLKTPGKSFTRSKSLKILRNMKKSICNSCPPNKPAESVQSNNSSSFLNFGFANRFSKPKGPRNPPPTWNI
Assay: LYP phosphatase inhibitors, confirmation, biochemical, DiFMUP fluorescence, retest and dose response (AID 1253)
Details: recombinant LYP
Calls of active or inactive are those of the source.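 Rule for the calls: active = IC50 under 10 µM in the follow-up dose response; inactive = IC50 10 µM or more, or under 40% single-dose inhibition.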
Just give me one of these, please: true (1) (active), false (0) (inactive)

// known answers, use as guide
> print(dat)
                                   compound  assignedclass
1  Cc1cc(-c2c(C)[nH]n(-c3ccc(Cl)cc3)c2=O)n[nH]1      false (0)
2  O=C(O)CCCN1C(=O)/C(=C/c2ccc(-c3nc4ccccc4s3)o2)SC1=S       true (1)
3  CC(C(=O)O)N1C(=O)/C(=C/C=C/c2ccco2)SC1=S (stereo not drawn)       true (1)

Problem: Per the assay record, what outcome was assigned to `Cc1c2cc(O)c(=O)cc-2oc2cc(O)c(O)cc12` ?
Solution: true (1)

Problem: Also `Cc1ccc(NC(=O)CN2C(=O)S/C(=C\c3cccn3-c3cccc(C(=O)O)c3)C2=O)c(C)c1` ?
Solution: true (1)

Problem: How about this compound: `Nc1c(C(=O)Nc2nc3ccccc3s2)sc2nc(-c3cccs3)ccc12`
Solution: true (1)

Problem: Request: `Cn1nc(-c2ccc(Cl)cc2)nc2c(=O)n(C)c(=O)nc1-2`
Solution: false (0)

Problem: One more compound: `O=[N+]([O-])c1cc(/C=N\Nc2nccs2)ccc1O`
Solution: true (1)

Problem: Another compound: `COc1cccc(OC)c1-c1nn2c(-c3cc(-c4ccccc4)n[nH]3)nnc2s1`
Solution: true (1)

Problem: Can you handle `COc1cc(-c2nnc(SCc3cc(=O)oc4cc(O)c(O)cc34)o2)cc(OC)c1OC` next?
Solution: true (1)

Problem: Now this one: `O=C(O)CCN1C(=O)/C(=C/c2ccc(-c3nc4ccccc4s3)o2)SC1=S`
Solution: true (1)

Problem: // repeat for `O=C(c1cccs1)c1no[n+]([O-])c1C(=O)c1cccs1` and report
Solution: true (1)

Problem: What about CC(C)C(C(=O)O)N1C(=O)/C(=C/C=C/c2ccco2)SC1=S (stereo not drawn) ?
Solution: true (1)
